src = the RNAGym collection of RNA variant scans (doi:10.1073/pnas.2313332121)

B1: TPR t1 (parent)
chain: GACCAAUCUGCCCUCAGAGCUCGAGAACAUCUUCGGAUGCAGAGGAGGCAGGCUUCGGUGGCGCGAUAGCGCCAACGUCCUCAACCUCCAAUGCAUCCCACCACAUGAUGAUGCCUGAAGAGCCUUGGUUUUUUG

- Variants of: B1
- measurementNotes: polymerase ribozyme fitness, log enrichment relative to wild type (log ratio); higher = more active; in vitro selection for triplet polymerase activity
Consider the following variants; for each one, report its polymerase ribozyme fitness (log ratio).

Please give the measured polymerase ribozyme fitness (log ratio) for this variant: C8U A50U C94A -1.52

Look up polymerase ribozyme fitness (log ratio) for this variant: C13G G42U -2.84

Which polymerase ribozyme fitness (log ratio) reading was recorded for the variant C4U C53G G57U G110A ? -1.58

Quick check: polymerase ribozyme fitness (log ratio) of A5C C89A A111C ? -3.6
